Target: protein kinase A (PKA) (Bos taurus)
Test: Measurement of PKA-inhibiting activity (PKA-IC50)
Assay type: biochemical
Conditions: crude enzyme partially purified from calf heart
metric.name: IC50

CCCCCCCCCCCCCCCC(=O)OC(CC(=O)[O-])C[N+](C)(C)C (racemic) [Palmitoyl-DL-carnitine]; > 1000 µM

====

System: protein kinase C (PKC)
Assay: Measurement of PKC-inhibiting activity (PKC-IC50)
metric.name: PKA-IC50/PKC-IC50

CCCCCCCCCCCCCCCC(=O)OC(CC(=O)[O-])C[N+](C)(C)C (racemic) [Palmitoyl-DL-carnitine]; > 4.3
